Every entry's value here was drawn from the supplement of paper PMC10065799.

Biological target: MERTK (UniProt Q12866)
Sequence (Q12866 whole entry, looked up): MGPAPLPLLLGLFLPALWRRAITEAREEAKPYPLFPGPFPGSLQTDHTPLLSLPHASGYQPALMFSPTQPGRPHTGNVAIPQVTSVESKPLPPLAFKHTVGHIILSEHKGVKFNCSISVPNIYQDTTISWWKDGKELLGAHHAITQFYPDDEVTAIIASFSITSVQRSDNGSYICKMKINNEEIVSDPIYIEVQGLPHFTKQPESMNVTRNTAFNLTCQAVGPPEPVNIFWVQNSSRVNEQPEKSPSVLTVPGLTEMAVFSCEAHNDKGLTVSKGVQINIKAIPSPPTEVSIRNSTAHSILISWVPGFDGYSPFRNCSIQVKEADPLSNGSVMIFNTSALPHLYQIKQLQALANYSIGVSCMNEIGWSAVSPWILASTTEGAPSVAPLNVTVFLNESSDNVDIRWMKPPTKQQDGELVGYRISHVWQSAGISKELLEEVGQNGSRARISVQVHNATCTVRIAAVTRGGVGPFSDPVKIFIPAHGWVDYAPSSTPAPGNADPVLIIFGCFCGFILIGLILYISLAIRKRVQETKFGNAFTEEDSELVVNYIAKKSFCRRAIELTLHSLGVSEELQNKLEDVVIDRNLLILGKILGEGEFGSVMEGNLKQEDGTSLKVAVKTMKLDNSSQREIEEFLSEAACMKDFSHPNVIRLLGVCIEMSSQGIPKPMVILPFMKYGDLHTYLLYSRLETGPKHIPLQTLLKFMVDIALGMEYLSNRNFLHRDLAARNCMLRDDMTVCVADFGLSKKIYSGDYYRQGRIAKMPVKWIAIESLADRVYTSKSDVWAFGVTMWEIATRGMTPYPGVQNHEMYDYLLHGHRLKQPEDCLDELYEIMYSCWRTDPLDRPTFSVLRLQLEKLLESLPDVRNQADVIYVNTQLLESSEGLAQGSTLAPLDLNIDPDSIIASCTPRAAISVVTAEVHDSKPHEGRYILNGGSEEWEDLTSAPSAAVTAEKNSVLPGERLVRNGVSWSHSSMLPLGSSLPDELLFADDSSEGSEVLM
Experiment: phosphorylation enrichment, bacterial display (enrichment ratio); higher = better substrate or ligand; peptides without Tyr show the background;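 also: 11-residue human phosphosite peptides and single-mutation variants displayed on the E. coli surface, counted by deep sequencing, each peptide's frequency after selection divided by its frequency in the unselected input library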;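 also: frequency after pTyr selection over input frequency; kinase dosed for 20-30% of maximal phosphorylation in three min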
outcomeMeasure: phosphorylation enrichment

The following sequences have reported results that may help.
{"itemSequence": "QYKDKYLAKHN [CASK_Y712]", "testedOn": "MERTK (UniProt Q12866)", "phosphorylation enrichment": 0.283}
{"itemSequence": "SVKVFYKKCWS [EPHA7_Y202_YF]", "testedOn": "MERTK (UniProt Q12866)", "phosphorylation enrichment": 0.409}
{"itemSequence": "EPVSDYINADI [PTPN11_Y304_N308D]", "testedOn": "MERTK (UniProt Q12866)", "phosphorylation enrichment": 0.492}
{"itemSequence": "LTYHMYADPNF [SOS1_Y618]", "testedOn": "MERTK (UniProt Q12866)", "phosphorylation enrichment": 5.2}

For every record below, what is its phosphorylation enrichment?
1. TQFWLYFAGNL [SLC25A5_Y112]
2. IGEGTYGVVYK [CDK2_Y15]

Ans:
0.576
2.01

====

Target: MERTK (UniProt Q12866)
Experiment: phosphorylation enrichment, bacterial display (enrichment ratio); higher = better substrate or ligand; peptides without Tyr show the background
Would you mind telling me the reported phosphorylation enrichment of each entry?
Numbers only.

The following sequences have reported results that may help.
{"itemSequence": "RHPYFYAPELL [ALB_Y174]", "phosphorylation enrichment": 0.622}
{"itemSequence": "DQGEQYKKELE [LMNA_Y259_V256G]", "phosphorylation enrichment": 0.467}
{"itemSequence": "RKGGSYTQAAS [HLA-A_Y344]", "phosphorylation enrichment": 0.461}
{"itemSequence": "VIKDKYPKARY [APTX_Y209]", "phosphorylation enrichment": 0.38}
{"itemSequence": "PKGIGYGQGAG [CSRP3_Y73]", "phosphorylation enrichment": 0.462}

For every record below, what is its phosphorylation enrichment?
1. GIYEDYVEGLR [MYL6_Y89_T85I]
2. VDTFWYKFLKP [EPM2A_Y86_R91P]

Ans:
[1.42, 0.471]

====

Molecular target: FGFR1 (UniProt P11362)
Sequence (P11362 whole entry, looked up): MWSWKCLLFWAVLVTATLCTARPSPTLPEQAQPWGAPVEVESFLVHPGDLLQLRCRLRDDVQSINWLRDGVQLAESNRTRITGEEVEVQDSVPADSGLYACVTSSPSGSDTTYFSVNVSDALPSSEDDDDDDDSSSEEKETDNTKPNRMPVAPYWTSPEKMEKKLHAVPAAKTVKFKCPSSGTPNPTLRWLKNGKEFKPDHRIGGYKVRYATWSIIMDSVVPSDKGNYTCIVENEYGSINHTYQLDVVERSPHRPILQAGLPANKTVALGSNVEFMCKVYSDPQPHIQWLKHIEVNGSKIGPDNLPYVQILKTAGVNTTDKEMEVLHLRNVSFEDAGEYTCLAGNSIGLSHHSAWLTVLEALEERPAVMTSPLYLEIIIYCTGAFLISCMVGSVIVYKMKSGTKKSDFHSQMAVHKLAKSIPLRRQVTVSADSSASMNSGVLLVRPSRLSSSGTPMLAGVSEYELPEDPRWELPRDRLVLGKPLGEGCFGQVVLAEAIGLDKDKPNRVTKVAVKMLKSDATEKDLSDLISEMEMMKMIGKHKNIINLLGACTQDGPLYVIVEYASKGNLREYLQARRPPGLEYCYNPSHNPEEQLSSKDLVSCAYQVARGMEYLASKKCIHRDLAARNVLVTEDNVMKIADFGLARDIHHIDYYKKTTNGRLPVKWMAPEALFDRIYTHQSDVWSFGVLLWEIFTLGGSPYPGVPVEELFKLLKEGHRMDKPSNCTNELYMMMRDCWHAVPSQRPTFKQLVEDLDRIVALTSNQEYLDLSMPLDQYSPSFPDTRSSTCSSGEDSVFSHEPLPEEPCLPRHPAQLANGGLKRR
Assay: phosphorylation enrichment, bacterial display (enrichment ratio); higher = better substrate or ligand; peptides without Tyr show the background
Label 1 when phosphorylation enrichment >= 0.7; otherwise 0.

Example entries and their recorded answers appear below.
{"itemSequence": "PKGIGYGQGAG [CSRP3_Y73]", "assignedCategory": 1}
{"itemSequence": "LVMFIDAIFGM [SCN1A_Y1684_Y1684D]", "assignedCategory": 1}
{"itemSequence": "SVVVSYEPPEV [TP53_Y220_P219S]", "assignedCategory": 0}
{"itemSequence": "VHNLDYFKMTT [FGFR3_Y647_K650M_YF]", "assignedCategory": 1}
{"itemSequence": "AHADEYGAEAL [HBA1_Y25_G23D]", "assignedCategory": 0}

Continue with the sequence presented below.
Q: Quick check, phosphorylation enrichment >= 0.7? SDGKRYRVPSD [HHIPL2_Y395_H391D]
Ans: 0

====

Test system: Fer (mouse)
Assay: phosphorylation enrichment, bacterial display (enrichment ratio); higher = better substrate or ligand; peptides without Tyr show the background
So basically every entry gets a class from its phosphorylation enrichment, ranges being lower band: < 0.4; central band: ≥ 0.4 and < 0.5; upper band: ≥ 0.5

Example entries and their recorded answers appear below.
{"itemSequence": "DLDLTYIYPNI [PTEN_Y27]", "assignedCategory": "central band"}
{"itemSequence": "KLIMECLPFGS [JAK2_Y931_Y931C_YF]", "assignedCategory": "upper band"}
{"itemSequence": "SLNEVYTKNKT [MSH2_Y563_E562V]", "assignedCategory": "lower band"}
{"itemSequence": "NFYEYYVDDPP [GCHFR_Y48]", "assignedCategory": "upper band"}
{"itemSequence": "CSSGGYEPRGR [FUS_Y239_R234C]", "assignedCategory": "central band"}

Q: Bin? CTTIHYFFMCN [TP53_Y234_N235Y_YF]
Ans: lower band

Q: Bin? EHFSFYGMKAV [SLC15A2_Y61_R57H_YF]
Ans: central band

Q: Bin? RGKDSYETSKL [SPP1_Y225_Q229K]
Ans: upper band
